Where these numbers come from: the RNAGym collection of RNA variant scans (doi:10.7554/elife.90254)

B1: OR4K15 (parent)
chain: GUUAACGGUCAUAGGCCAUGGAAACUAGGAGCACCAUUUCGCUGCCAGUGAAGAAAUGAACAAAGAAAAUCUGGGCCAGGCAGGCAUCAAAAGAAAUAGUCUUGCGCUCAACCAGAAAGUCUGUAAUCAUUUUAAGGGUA

Variants of: B1
Assay: self-cleavage, relative activity (ratio to wild type); higher = more cleavage; in vitro, sequencing; the parent is a self-cleaving ribozyme
measured.attribute: self-cleavage
Numbers only.

Previously resolved entries follow.
{"variant.annotation": "U19C A129U", "self-cleavage": 1.39}
{"variant.annotation": "U49G A54G", "self-cleavage": 1.61}
{"variant.annotation": "A51G A54U", "self-cleavage": 1.4}
{"variant.annotation": "A22U U49A", "self-cleavage": 1.78}
{"variant.annotation": "A66U", "self-cleavage": 1.36}
{"variant.annotation": "A54G A116U", "self-cleavage": 0.27}
{"variant.annotation": "A114U A125G", "self-cleavage": 0}
{"variant.annotation": "U2C A23U", "self-cleavage": 1.22}

Return reported self-cleavage values for all items listed beneath this line.
1. A64G G106U
2. A95G U122C

[reply]
1. 0.02
2. 1.2
